src = PubChem BioAssay AID1963870

system: 292921-168-R-J2-PDC KRAS tumor spheroid viability; assay: Anticancer human tumor 292921-168-R-J2-PDC patient-derived pancreatic carcinoma cell line growth inhibition [KRAS2]; details: second compound 10 µM; first compound 0.000316 µM; stronger effect = lower value; spheroids with HUVEC and MSC
Recorded metric: viability, T/C (%)
Please respond with the number in % and leave the unit unwritten.

Worked examples, 3 compounds total:
compound="CC(=O)Nc1cccc(-n2c(=O)n(C3CC3)c(=O)c3c(Nc4ccc(I)cc4F)n(C)c(=O)c(C)c32)c1 + COc1cc2nc(C)nc(NC(C)c3cc(N)cc(C(F)(F)F)c3)c2cc1OC1CCOC1" measured_number=14.6
compound="CC(=O)Nc1cccc(-n2c(=O)n(C3CC3)c(=O)c3c(Nc4ccc(I)cc4F)n(C)c(=O)c(C)c32)c1 + CC1OCC2(CCN(c3cnc(Sc4ccnc(N)c4Cl)c(N)n3)CC2)C1N" measured_number=14.1
compound="CC(C)n1nc(-c2ccc3oc(N)nc3c2)c2c(N)ncnc21 + CNCc1ccccc1-c1csc(C(C)Nc2nc(C)nc3cc(OC)c(OC)cc23)c1" measured_number=0.08

Query: For the compound CC(C)n1nc(-c2ccc3oc(N)nc3c2)c2c(N)ncnc21 + C=CC(=O)N1CCN(c2nc(=O)n(-c3c(C)ccnc3C(C)C)c3nc(-c4c(O)cccc4F)c(F)cc23)C(C)C1 , what viability, T/C is on record?
Reply: 26.3

Query: So what's the measured viability, T/C for this one? CC(=O)Nc1cccc(-n2c(=O)n(C3CC3)c(=O)c3c(Nc4ccc(I)cc4F)n(C)c(=O)c(C)c32)c1 + CNCc1ccccc1-c1csc(C(C)Nc2nc(C)nc3cc(OC)c(OC)cc23)c1
Reply: 0.11

Query: viability, T/C for CN(C)C/C=C/C(=O)Nc1cc2c(Nc3ccc(F)c(Cl)c3)ncnc2cc1O[C@H]1CCOC1 + COc1cc2nc(C)nc(NC(C)c3cc(N)cc(C(F)(F)F)c3)c2cc1OC1CCOC1 ?
Reply: 50

Query: Consider the compound Cn1ncnc1[C@H]1c2n[nH]c(=O)c3cc(F)cc(c23)N[C@@H]1c1ccc(F)cc1 + CNCc1ccccc1-c1csc(C(C)Nc2nc(C)nc3cc(OC)c(OC)cc23)c1 and give its measured viability, T/C.
Reply: 0.08

Query: Need viability, T/C, item CN(C)C/C=C/C(=O)Nc1cc2c(Nc3ccc(F)c(Cl)c3)ncnc2cc1O[C@H]1CCOC1 + C=CC(=O)N1CCN(c2nc(=O)n(-c3c(C)ccnc3C(C)C)c3nc(-c4c(O)cccc4F)c(F)cc23)C(C)C1
Reply: 29.3

###

# maps each entry to its pIC50
system: 292921-168-R-J2-PDC KRAS tumor spheroid viability; test: Anticancer human tumor 292921-168-R-J2-PDC cell line growth inhibition [KRAS2]; conditions: curve of first compound; second compound 3.16 µM; spheroids with HUVEC and MSC;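 also: drug exposure lasted seven days after spheroids formed for three days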
The scale used: pIC50 is minus the common logarithm of the concentration in molar units.

compound="CC1(C)CCC(CN2CCN(c3ccc(C(=O)NS(=O)(=O)c4ccc(NCC5CCOCC5)c([N+](=O)[O-])c4)c(Oc4cnc5[nH]ccc5c4)c3)CC2)=C(c2ccc(Cl)cc2)C1 + COc1cc2nc(C)nc(NC(C)c3cc(N)cc(C(F)(F)F)c3)c2cc1OC1CCOC1" recorded_metric=pIC50 measured_number=5.86
compound="Cn1ncnc1[C@H]1c2n[nH]c(=O)c3cc(F)cc(c23)N[C@@H]1c1ccc(F)cc1 + C=CC(=O)N1CCN(c2nc(=O)n(-c3c(C)ccnc3C(C)C)c3nc(-c4c(O)cccc4F)c(F)cc23)C(C)C1" recorded_metric=pIC50 measured_number=7.05
compound="Cn1ncnc1[C@H]1c2n[nH]c(=O)c3cc(F)cc(c23)N[C@@H]1c1ccc(F)cc1 + COc1cc2nc(C)nc(NC(C)c3cc(N)cc(C(F)(F)F)c3)c2cc1OC1CCOC1" recorded_metric=pIC50 measured_number=7.43
compound="CC(C)n1nc(-c2ccc3oc(N)nc3c2)c2c(N)ncnc21 + C=CC(=O)N1CCN(c2nc(=O)n(-c3c(C)ccnc3C(C)C)c3nc(-c4c(O)cccc4F)c(F)cc23)C(C)C1" recorded_metric=pIC50 measured_number=8.31
compound="CCN1CCN(Cc2ccc(Nc3ncc(F)c(-c4cc(F)c5nc(C)n(C(C)C)c5c4)n3)nc2)CC1 + COc1cc2nc(C)nc(NC(C)c3cc(N)cc(C(F)(F)F)c3)c2cc1OC1CCOC1" recorded_metric=pIC50 measured_number=8.48
compound="Cn1nccc1Nc1nccc(-c2cc3c(s2)C(C)(C)N(CCN2CCOCC2)C3=O)n1 + COc1cc2nc(C)nc(NC(C)c3cc(N)cc(C(F)(F)F)c3)c2cc1OC1CCOC1" recorded_metric=pIC50 measured_number=7.49
compound="CCN1CCN(Cc2ccc(Nc3ncc(F)c(-c4cc(F)c5nc(C)n(C(C)C)c5c4)n3)nc2)CC1 + C=CC(=O)N1CCN(c2nc(=O)n(-c3c(C)ccnc3C(C)C)c3nc(-c4c(O)cccc4F)c(F)cc23)C(C)C1" recorded_metric=pIC50 measured_number=7.95

// next item, pIC50 requested
Query: // query pIC50 value for entry CN(C)C/C=C/C(=O)Nc1cc2c(Nc3ccc(F)c(Cl)c3)ncnc2cc1O[C@H]1CCOC1 + COc1cc2nc(C)nc(NC(C)c3cc(N)cc(C(F)(F)F)c3)c2cc1OC1CCOC1
Reply: 7.52

###

tested on: 292921-168-R-J2-PDC KRAS tumor spheroid viability; assay: Anticancer human tumor 292921-168-R-J2-PDC cell line growth inhibition [KRAS2]; details: curve of first compound; second compound 0.1 µM; spheroids with HUVEC and MSC;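 also: drug exposure lasted seven days after spheroids formed for three days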
Recorded metric: pIC50
Lab note: report pIC50 as minus log10 of the concentration in molar units, number only.

Example cases with answers are listed next.
molecule="CC(=O)Nc1cccc(-n2c(=O)n(C3CC3)c(=O)c3c(Nc4ccc(I)cc4F)n(C)c(=O)c(C)c32)c1 + C=CC(=O)N1CCN(c2nc(OCC3CCCN3C)nc3c2CCN(c2cccc4cccc(C)c24)C3)CC1CC#N" recorded_metric=pIC50 measured_number=9.62
molecule="CC(C)n1nc(-c2ccc3oc(N)nc3c2)c2c(N)ncnc21 + C=CC(=O)N1CCN(c2nc(=O)n(-c3c(C)ccnc3C(C)C)c3nc(-c4c(O)cccc4F)c(F)cc23)C(C)C1" recorded_metric=pIC50 measured_number=8.16
molecule="CC(=O)Nc1cccc(-n2c(=O)n(C3CC3)c(=O)c3c(Nc4ccc(I)cc4F)n(C)c(=O)c(C)c32)c1 + COc1cc2nc(C)nc(NC(C)c3cc(N)cc(C(F)(F)F)c3)c2cc1OC1CCOC1" recorded_metric=pIC50 measured_number=9.64
molecule="COc1cc2nccc(Oc3ccc(NC(=O)C4(C(=O)Nc5ccc(F)cc5)CC4)cc3)c2cc1OC + C=CC(=O)N1CCN(c2nc(OCC3CCCN3C)nc3c2CCN(c2cccc4cccc(C)c24)C3)CC1CC#N" recorded_metric=pIC50 measured_number=5.77
molecule="CC1OCC2(CCN(c3cnc(Sc4ccnc(N)c4Cl)c(N)n3)CC2)C1N (stereo not given) + C=CC(=O)N1CCN(c2nc(=O)n(-c3c(C)ccnc3C(C)C)c3nc(-c4c(O)cccc4F)c(F)cc23)C(C)C1" recorded_metric=pIC50 measured_number=5.94

Query: State the recorded pIC50 for this entry: COc1cc2nccc(Oc3ccc(NC(=O)C4(C(=O)Nc5ccc(F)cc5)CC4)cc3)c2cc1OC + CNCc1ccccc1-c1csc(C(C)Nc2nc(C)nc3cc(OC)c(OC)cc23)c1
Reply: 5.90

Query: pIC50 for CC1(C)CCC(CN2CCN(c3ccc(C(=O)NS(=O)(=O)c4ccc(NCC5CCOCC5)c([N+](=O)[O-])c4)c(Oc4cnc5[nH]ccc5c4)c3)CC2)=C(c2ccc(Cl)cc2)C1 + CNCc1ccccc1-c1csc(C(C)Nc2nc(C)nc3cc(OC)c(OC)cc23)c1 ?
Reply: 5.71

Query: Fill in the blank: the reported pIC50 of COC(=O)c1ccc2c(C(=Nc3ccc(N(C)C(=O)CN4CCN(C)CC4)cc3)c3ccccc3)c(O)[nH]c2c1 + CNCc1ccccc1-c1csc(C(C)Nc2nc(C)nc3cc(OC)c(OC)cc23)c1 is ____.
Reply: 6.27

Query: # input molecule: CC(C)n1nc(-c2ccc3oc(N)nc3c2)c2c(N)ncnc21 + COc1cc2nc(C)nc(NC(C)c3cc(N)cc(C(F)(F)F)c3)c2cc1OC1CCOC1 ; wanted: its pIC50
Reply: 8.48

Query: Entry under review: Cn1nccc1Nc1nccc(-c2cc3c(s2)C(C)(C)N(CCN2CCOCC2)C3=O)n1 + CNCc1ccccc1-c1csc(C(C)Nc2nc(C)nc3cc(OC)c(OC)cc23)c1 . Reported pIC50?
Reply: 7.08

Query: pIC50 for Cn1nccc1Nc1nccc(-c2cc3c(s2)C(C)(C)N(CCN2CCOCC2)C3=O)n1 + CC1OCC2(CCN(c3cnc(Sc4ccnc(N)c4Cl)c(N)n3)CC2)C1N ?
Reply: 7.41

Query: // query pIC50 value for entry CC(C)n1nc(-c2ccc3oc(N)nc3c2)c2c(N)ncnc21 + CNCc1ccccc1-c1csc(C(C)Nc2nc(C)nc3cc(OC)c(OC)cc23)c1
Reply: 8.51
